# measurement_notes: in vivo
# condition_description: Sprague-Dawley, rat, iv, 1 mg/kg
measure: clearance (mL/min/kg)

compound	meas_value
Cn1cc(C(=O)O)c2ccc(N3CCC(OCc4c(-c5c(Cl)cccc5Cl)noc4C4CC4)CC3)cc21 [TERN-101]	82.6

a. O=C(O)c1cc(F)c2nc(N3C4CCC3CC(F)(COCc3c(-c5ccccc5OC(F)(F)F)noc3C3CC3)C4)sc2c1 (stereo not drawn)
b. CCn1cc(C(=O)O)c2ccc(N3CCC(F)(COCc4c(-c5c(F)cccc5Cl)noc4C4CC4)CC3)cc21
Ask: I would appreciate it if you could say which entry, a or b , has the lower clearance value. Which one? Tell me its label.
Result: a
